Survival overview
Tested on: T. b. r. STIB 900
Experiment: STIB900 mouse model for acute African trypanosomiasis
Format: in vivo
Conditions: po, 4 × 25 mg/kg; average days of mice survival
Return type: number; implicit unit days.

Identify Survival associated with the compound `Cl.Cl.N/C(=N\O)c1ccc(-c2cnc(-c3ccc(/C(N)=N/O)nc3)s2)cc1`
37.5

---

Survival overview
Test system: T. b. r. STIB 900
Assay: STIB900 mouse model for acute African trypanosomiasis
Type: in vivo
Conditions: ip, 4 × 5 mg/kg; average days of mice survival

Consider the worked cases shown below.
N=C(N)c1ccc(-c2ccc(-c3ccc(C(=N)N)cn3)o2)cc1 [IIc, azafuramidine, reference compound]
>54.5 days
Cl.Cl.N=C(N)c1ccc(-c2ncc(-c3ccc(C(=N)N)nc3)s2)cc1
>36 days
N=C(N)c1ccc(-c2ccc(-c3ccc(C(=N)N)cc3)s2)cc1 [IIe, reference compound]
>48.75 days
Cl.Cl.N=C(N)c1ccc(-c2cnc(-c3ccc(C(=N)N)cc3)s2)cc1
>44.5 days
N=C(N)c1ccc(-c2ccc(-c3ccc(C(=N)N)cc3)o2)cc1
>46 days

Identify Survival associated with the molecule `Cl.Cl.N=C(N)c1ccc(-c2cnc(-c3ccc(C(=N)N)nc3)s2)cn1`
50.5 days

Identify Survival associated with the molecule `Cl.Cl.N=C(N)c1ccc(-c2cnc(-c3ccc(C(=N)N)cn3)s2)nc1`
21.5 days
